- Read-out: urokinase plasminogen activator (uPA), PLAU (gene 5328)
- methodSummary: BSK_KF3CT_uPA: BioMAP Diversity Plus: KF3CT Assay for urokinase plasminogen activator (uPA) Biomarker Activity (AID 2283075)
- assayContext: primary human keratinocytes with fibroblasts; actives raise or lower the signal
Active and inactive are the calls of the source. The calls were made as follows: active = hit-call score of the fitted dose curve at least 0.9, where 1 is the maximum; inactive = score below 0.9.
Classes to choose from: active, inactive

Ask | Recorded call for `CCOP(=O)(OCC)Oc1nc(Cl)c(Cl)cc1Cl` ?
Reply | active

Ask | Can you check COCC(=O)N(c1c(C)cccc1C)C(C)C(=O)OC (configuration not stated) next?
Reply | inactive

Ask | Can you check `COC(=O)N(C(=O)N1CO[C@@]2(C(=O)OC)Cc3cc(Cl)ccc3C2=N1)c1ccc(OC(F)(F)F)cc1` next?
Reply | inactive

Ask | Can you check `Cn1c(-c2ccccc2)cc(-c2ccccc2)[n+]1C` next?
Reply | active

Ask | Can you check `CC1(C)CON(Cc2ccccc2Cl)C1=O` next?
Reply | inactive

Ask | Can you check `CCN(CC)c1nc(C)cc(OP(=S)(OC)OC)n1` next?
Reply | inactive

Ask | Can you check `COc1cc(Cl)c(OC)cc1Cl` next?
Reply | inactive

Ask | Can you check `CCOP(=S)(OCC)Oc1nc(Cl)n(C(C)C)n1` next?
Reply | inactive

Ask | Can you check Cc1cnc(C2=NC(C)(C(C)C)C(=O)N2)c(C(=O)O)c1 (configuration not stated) next?
Reply | inactive

Ask | Can you check `COP(=S)(OC)Oc1ccc([N+](=O)[O-])c(C)c1` next?
Reply | inactive

Ask | Can you check `COP(=S)(OC)SCn1nnc2ccccc2c1=O` next?
Reply | inactive

Ask | Can you check `Cc1ccc(N=CN(C)C=Nc2ccc(C)cc2C)c(C)c1` next?
Reply | active
